Just for reference, paper PMC10424186 is where these values come from.

tested system: human JMJD5 (Homo sapiens, UniProt Q8N371)
Sequence (Q8N371 whole entry): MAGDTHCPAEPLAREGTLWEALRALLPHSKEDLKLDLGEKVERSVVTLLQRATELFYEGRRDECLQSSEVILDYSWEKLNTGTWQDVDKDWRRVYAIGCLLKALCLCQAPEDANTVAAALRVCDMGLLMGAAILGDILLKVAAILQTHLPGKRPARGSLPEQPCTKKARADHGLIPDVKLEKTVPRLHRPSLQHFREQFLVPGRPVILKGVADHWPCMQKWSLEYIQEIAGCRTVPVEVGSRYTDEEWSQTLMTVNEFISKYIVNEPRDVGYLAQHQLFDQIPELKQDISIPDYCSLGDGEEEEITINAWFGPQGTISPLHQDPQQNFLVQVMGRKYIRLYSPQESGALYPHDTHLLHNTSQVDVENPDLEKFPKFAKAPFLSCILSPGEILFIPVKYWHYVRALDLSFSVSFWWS
run description: SPE-MS JMJD5 inhibition assay (hydroxylation of RPS6 128–148 peptide)
Assay type: biochemical
condition description: Table 1; JMJD5 […], 2OG 2.0 μM, Fe(II) 2.0 μM, LAA 100 μM, RPS6 128–148 2.0 μM, pH 7.5, 20 °C; n = 3, mean ± SD; read-out: IC50 JMJD5
From the text: Synthetic peptides with sequences based on reported human 2OG oxygenase substrates were used in SPE-MS inhibition assays: RPS6, residues 128–148, for JMJD5;[42] HIF-α CODD, residues 558–574, for PHD2;[70] HIF-α CAD, residues 788–822, for FIH;[70] […]
Entries and their IC50
The reply should contain only the number, in µM.

Report IC50 for O=C(O)c1ccnc(C(=O)O)c1NCC1CCCCC1 tested on human JMJD5 (Homo sapiens, UniProt Q8N371).
25.3
